- system: human RORγt ligand binding domain (RORγt LBD) (Homo sapiens (Human))
- Sequence (P51449 other isoform, or with tags, fused parts or gaps): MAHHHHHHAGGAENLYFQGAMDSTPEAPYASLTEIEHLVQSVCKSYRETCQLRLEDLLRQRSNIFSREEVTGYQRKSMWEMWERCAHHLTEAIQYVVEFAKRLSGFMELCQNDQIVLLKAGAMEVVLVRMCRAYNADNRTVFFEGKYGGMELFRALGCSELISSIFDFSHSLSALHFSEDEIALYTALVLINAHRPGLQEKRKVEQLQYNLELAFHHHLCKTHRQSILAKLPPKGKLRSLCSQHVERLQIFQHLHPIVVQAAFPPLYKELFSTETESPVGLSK
- assay: RORγt ThermoFluor® assay (thermal shift binding)
- protocol_conditions: read-out: ThermoFluor® Assay, Kd
- Experimental: […] Bar-coded assay plates are robotically loaded onto a thermostatically controlled PCR-type thermal block and then heated at a typical ramp-rate of 1° C./min for all experiments. Fluorescence was measured by continuous illumination with UV light (Hamamatsu LC6) supplied via fiber optic and filtered through a band-pass filter (380-400 nm; >6 OD cutoff). […] Images were collected at each temperature, and the sum of the pixel intensity in a given area of the assay plate was recorded versus temperature. […]

| compound | uom | Kd |
| --- | --- | --- |
| CC(C)(C)Nc1cc(C(F)F)c(-c2sc(C(=O)N[C@H]3CCC[C@@H]3O)nc2C(=O)N2C3CCC2CC3)cn1 | nM | 0.72 |
| C[C@H](NC(=O)c1nc(C(=O)N2CCC[C@@H]2C)c(-c2cnc(NCC(C)(C)C)cc2C(F)F)s1)C(C)(C)O | nM | 3.2 |
| C[C@H]1CCCN1C(=O)c1nc(C(=O)NCC(C)(C)O)sc1-c1cnc(NC2CCCCC2)cc1C(F)(F)F | nM | 4.4 |
| C[C@H]1CCCCN1C(=O)c1nc(C(=O)NCC(C)(C)O)sc1-c1cnc(NCC(C)(C)C)cc1C(F)(F)F | nM | 0.17 |
| C[C@H](Nc1cc(C(F)(F)F)c(-c2sc(C(=O)NCC(C)(C)O)nc2C(=O)N2C3CCC2CC3)cn1)C1CCC1 (stereo in doubt) | nM | 4 |
| C[C@H]1CCCN1C(=O)c1nc(C(=O)NC(C)(C)C(C)(C)O)sc1-c1cnc(NC(C)(C)C)cc1C(F)(F)F | nM | 5.7 |
| CCc1cc(NC2CCCCC2)ncc1-c1sc(C(=O)NCC(C)(C)O)nc1C(=O)N1CCC(F)CC1 | nM | 36 |
| C[C@H]1CCCN1C(=O)c1nc(C(=O)NCC(C)(C)O)sc1-c1cnc(NCC2(C(F)(F)F)CCC2)cc1C(F)(F)F | nM | 0.78 |
| C[C@H]1CCCN1C(=O)c1nc(C(=O)NCC(C)(C)O)sc1-c1cnc(NC(C2CC2)C(F)(F)F)cc1C(F)F (stereo partly shown) | nM | 1.3 |
| C[C@H](NC(=O)c1nc(C(=O)N2CC(F)(F)C[C@@H]2C)c(-c2cnc(N[C@@H](C3CC3)C(F)(F)F)cc2C(F)F)s1)C(C)(C)O | nM | 0.74 |
| CC[C@H](Nc1cc(C(F)F)c(-c2sc(C(=O)N[C@@H](C)C(C)(C)O)nc2C(=O)N2CC(F)(F)C[C@@H]2C)cn1)C(F)(F)F | nM | 1.3 |
| CC[C@H](Nc1cc(C(F)F)c(-c2sc(C(=O)NC3CCS(=O)(=O)CC3)nc2C(=O)N2C3CCC2CC3)cn1)C(F)(F)F | nM | 1 |
| C[C@H]1CCCN1C(=O)c1nc(C(=O)N2CC(C)(O)C2)sc1-c1cnc(NC(C)(C)C)cc1C(F)(F)F | nM | 2.4 |
